- targetOrTestSystem: CaCYP51 S279F (Candida albicans, UniProt P10613, S279F)
- methodNotes: Azole ligand binding (type II difference spectra)
- testContext: 4 μM protein, 22°C, ± standard deviation, triplicate, read-out: dissociation constant (Kd)
measurementName: pKd
# pKd = -log10(concentration in molar units)

So the reported pKd for OC(Cn1cncn1)(Cn1cncn1)c1ccc(F)cc1F , on CaCYP51 S279F (Candida albicans, UniProt P10613, S279F), turned out to be 6.63

----------
- targetOrTestSystem: CaCYP51 P230L (Candida albicans, UniProt P10613, P230L)
- Construct: made in house; host or cells: E. coli DH5α (pCWori+)
- methodNotes: CYP51 reconstitution assay
- Type: biochemical
- testContext: 0.25 h, 4 μM triazole, % of activity without triazole, read-out: Residual CYP51 activity (%) ± SD
measurementName: remaining activity at 4 µM (%)
Numeric only. Scale: %

Answered examples (3):
> print(dat)
                                   compound             measurementname  measurement
1  CC[C@@H]([C@H](C)O)n1ncn(-c2ccc(N3CCN(c4ccc(OC[C@@H]5CO[C@@](Cn6cncn6)(c6ccc(F)cc6F)C5)cc4)CC3)cc2)c1=O  remaining activity at 4 µM         0.21
2  C[C@@H](c1ncncc1F)[C@](O)(Cn1cncn1)c1ccc(F)cc1F  remaining activity at 4 µM         0.13
3        OC(Cn1cncn1)(Cn1cncn1)c1ccc(F)cc1F  remaining activity at 4 µM         0.05

Could you now look at the following compound, please?
Record CCC(C)n1ncn(-c2ccc(N3CCN(c4ccc(OCC5COC(Cn6cncn6)(c6ccc(Cl)cc6Cl)O5)cc4)CC3)cc2)c1=O (stereo not shown) / CaCYP51 P230L (Candida albicans, UniProt P10613, P230L), remaining activity at 4 µM recorded as 0.06
